Molecular target: Kappa-type opioid receptor (Homo sapiens, UniProt P41145)
Sequence (P41145 whole entry): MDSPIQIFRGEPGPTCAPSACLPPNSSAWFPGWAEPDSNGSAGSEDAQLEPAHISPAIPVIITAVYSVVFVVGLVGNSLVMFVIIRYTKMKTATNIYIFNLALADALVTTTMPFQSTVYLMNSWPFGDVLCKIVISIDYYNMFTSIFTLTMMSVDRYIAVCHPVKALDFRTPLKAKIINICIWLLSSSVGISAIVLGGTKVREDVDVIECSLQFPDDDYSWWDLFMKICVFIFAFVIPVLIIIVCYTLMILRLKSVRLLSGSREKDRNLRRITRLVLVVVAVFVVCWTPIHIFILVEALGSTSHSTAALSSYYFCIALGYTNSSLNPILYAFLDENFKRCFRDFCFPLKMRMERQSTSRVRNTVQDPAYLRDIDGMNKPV
Assay: Displacement of [3H]U69593 from recombinant human kappa-opioid receptor expressed in CHO cell membranes at 1 X 10^-6 M after 60 mins by liquid scintillation counting method relative to control
test.readout: inhibition (%)

Cc1ccccc1C1CCCN1Cc1ccc(Oc2ccc(C(N)=O)c3ccccc23)cc1 (stereo not drawn)	13.9
Cc1cc(C)cc(C2CCCN2Cc2ccc(Oc3ccc(C(N)=O)c4ccccc34)cc2)c1 (stereo not drawn)	12.2
Cc1cc(C)cc(C2CCCN2Cc2ccc(Oc3ccc(C(N)=O)cc3F)c(Cl)c2)c1 (stereo not drawn)	98.5

(1) Cc1cc(C)cc(C2CCCN2Cc2ccc(Oc3ccc(C(N)=O)cc3F)c(F)c2)c1 (stereo not drawn)
(2) Cc1cccc(C2CCCN2Cc2ccc(Oc3ccc(C(N)=O)c4ccccc34)cc2)c1 (stereo not drawn)
Query block: Two entries are listed, 1 and 2 . Which one carries the higher inhibition? Lab note: record the label of whichever item you select.
Result block: 1
(1: 95.8%, 2: 39.9%)

(A) Cc1cc(C)cc(C2CCCN2Cc2ccc(Oc3ccc(C(N)=O)cc3)c(F)c2)c1 (stereo not drawn)
(B) NC(=O)c1ccc(Oc2ccc(CN3CCCC3c3ccc(F)cc3)cc2)c2ccccc12 (stereo not drawn)
Query block: Param pair: A , B . Output: the one whose inhibition is numerically greater. Pick one and reply with its label.
Result block: A
(A: 98.8%, B: 13.8%)

(1) Cc1cc(C)cc(C2CCCN2Cc2ccc(Oc3ccc(C(N)=O)cc3F)cc2)c1 (racemic)
(2) NC(=O)c1ccc(Oc2ccc(CN3CCCC3c3cccc(Cl)c3)cc2)c2ccccc12 (stereo not drawn)
Query block: Returns the identifier with the smallest measured inhibition among 1 and 2 . Output the label that corresponds to your choice.
Result block: 2
(2: 31.4%, 1: 97%)

---

Target: Delta-type opioid receptor (Homo sapiens)
Sequence (P41143 whole entry): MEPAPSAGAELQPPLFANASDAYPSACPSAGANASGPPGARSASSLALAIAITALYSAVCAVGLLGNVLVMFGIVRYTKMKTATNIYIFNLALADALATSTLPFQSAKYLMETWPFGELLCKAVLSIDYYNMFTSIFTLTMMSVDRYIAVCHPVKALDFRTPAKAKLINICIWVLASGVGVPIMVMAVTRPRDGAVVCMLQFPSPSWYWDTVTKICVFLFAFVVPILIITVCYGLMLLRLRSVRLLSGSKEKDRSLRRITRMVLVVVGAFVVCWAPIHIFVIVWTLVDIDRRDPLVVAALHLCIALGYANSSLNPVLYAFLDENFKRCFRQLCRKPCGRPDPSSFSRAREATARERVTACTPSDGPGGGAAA
Test: Displacement of [3H]DPDPE from recombinant human delta-opioid receptor expressed in HEK293 cell membranes at 1 X 10^-5 M after 60 mins by liquid scintillation counting method relative to control
test.readout: inhibition (%)

// known answers, use as guide
Cc1cc(C)cc(C2CCCN2Cc2ccc(Oc3ccc(C(N)=O)cc3F)c(Cl)c2)c1 (stereo not drawn)	92.4
Cc1cc(C)cc(C2CCCN2Cc2ccc(Oc3ccc(C(N)=O)cc3)c(F)c2)c1 (stereo not drawn)	97.1
Cc1ccccc1C1CCCN1Cc1ccc(Oc2ccc(C(N)=O)c3ccccc23)cc1 (stereo not drawn)	2.9
NC(=O)c1ccc(Oc2ccc(CN3CCCC3c3ccc(F)cc3)cc2)c2ccccc12 (stereo not drawn)	0
Cc1cc(C)cc(C2CCCN2Cc2ccc(Oc3ccc(C(N)=O)c4ccccc34)cc2)c1 (stereo not drawn)	0
NC(=O)c1ccc(Oc2ccc(CN3CCCC3c3cccc(F)c3)cc2)c2ccccc12 (stereo not drawn)	4
Cc1cc(C)cc(C2CCCN2Cc2ccc(Oc3ccc(C(N)=O)cc3F)c(F)c2)c1 (stereo not drawn)	89.2
Cc1cccc(C2CCCN2Cc2ccc(Oc3ccc(C(N)=O)c4ccccc34)cc2)c1 (stereo not drawn)	0

(P) NC(=O)c1ccc(Oc2ccc(CN3CCCC3c3cccnc3)cc2)c2ccccc12 (stereo not drawn)
(Q) Cc1cc(C)cc(C2CCCN2Cc2ccc(Oc3ccc(C(N)=O)cc3F)cc2)c1 (racemic)
Query block: # argmax over inhibition for candidates P and Q Bench note: the answer is the label of the chosen record.
Result block: Q

---

Target: Mu-type opioid receptor (Homo sapiens)
Sequence (P35372 whole entry): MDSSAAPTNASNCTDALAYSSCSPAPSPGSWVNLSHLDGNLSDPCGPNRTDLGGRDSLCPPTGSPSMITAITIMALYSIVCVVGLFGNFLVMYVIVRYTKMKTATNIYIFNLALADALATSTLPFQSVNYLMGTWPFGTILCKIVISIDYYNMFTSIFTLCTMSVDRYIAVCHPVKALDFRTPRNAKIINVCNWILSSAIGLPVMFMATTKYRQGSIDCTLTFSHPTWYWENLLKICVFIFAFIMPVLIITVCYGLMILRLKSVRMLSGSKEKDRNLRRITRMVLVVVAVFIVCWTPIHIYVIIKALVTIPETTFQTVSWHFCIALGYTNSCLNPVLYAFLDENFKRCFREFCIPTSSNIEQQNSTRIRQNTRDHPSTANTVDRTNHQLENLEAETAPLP
Assay: Displacement of [3H]DAMGO from recombinant human mu-opioid receptor expressed in CHO cell membranes at 1 X 10^-5 M after 60 mins by liquid scintillation counting method relative to control
test.readout: inhibition (%)

Worked set:
NC(=O)c1ccc(Oc2ccc(CN3CCCC3c3ccc(F)cc3)cc2)c2ccccc12 (stereo not drawn)	0
NC(=O)c1ccc(Oc2ccc(CN3CCCC3c3cccnc3)cc2)c2ccccc12 (stereo not drawn)	52.2
NC(=O)c1ccc(Oc2ccc(CN3CCCC3c3cccc(Cl)c3)cc2)c2ccccc12 (stereo not drawn)	0
Cc1cccc(C2CCCN2Cc2ccc(Oc3ccc(C(N)=O)c4ccccc34)cc2)c1 (stereo not drawn)	16.3
Cc1cc(C)cc(C2CCCN2Cc2ccc(Oc3ccc(C(N)=O)cc3)c(Cl)c2)c1 (stereo not drawn)	99.1
Cc1cc(C)cc(C2CCCN2Cc2ccc(Oc3ccc(C(N)=O)cc3F)c(F)c2)c1 (stereo not drawn)	96.8

(A) Cc1cc(C)cc(C2CCCN2Cc2ccc(Oc3ccc(C(N)=O)cc3F)c(Cl)c2)c1 (stereo not drawn)
(B) Cc1cc(C)cc(C2CCCN2Cc2ccc(Oc3ccc(C(N)=O)c4ccccc34)cc2)c1 (stereo not drawn)
(C) COc1ccc(C2CCCN2Cc2ccc(Oc3ccc(C(N)=O)c4ccccc34)cc2)cc1 (stereo not drawn)
Query block: Hey, can you sort those compounds up there by inhibition, smallest first? Please respond with the labels ordered as the question requires.
Result block: B, C, A
